tested on: DU-145; experiment: NCI tumour cell line growth inhibition, 48 h
The source made the active and inactive calls. Cut-off read from the data, not from the text of the source: active = GI50 up to about 1.1 µM and inactive = higher.
Parameter call: string, one of active, inactive

COc1ccc(N2C(N)=C(C#N)C(C#N)(C#N)C2c2cccc([N+](=O)[O-])c2)cc1 (configuration not stated) ... inactive
O=[N+]([O-])c1cc(Cl)c(Cl)cc1[N+](=O)[O-] ... inactive
CC(NC(=O)OCc1ccccc1)NC(=O)OC(C)(C)C (configuration not stated) ... inactive
Cn1c2ccccc2n2c3ccccc3c(=O)c(C#N)c12 ... inactive
CCc1nc(N)nc(N)c1-c1ccc(Cl)c([N+]#N)c1 ... inactive

Query block: Returns: the outcome recorded for `Cc1ccccc1/N=N/c1c(O)c(S(=O)(=O)O)cc2cc(S(=O)(=O)O)ccc12` in this assay.
Result block: inactive

Query block: Returns: the outcome recorded for CNc1ccc([S+]([O-])Nc2ccc(OC)cc2)cc1 (configuration not stated) in this assay.
Result block: inactive

###

test system: MOLT-4; assay: NCI tumour cell line growth inhibition, 48 h
The source made the active and inactive calls. No stated cut-off is given here; in the data, active = GI50 up to about 1.1 µM and inactive = higher. Non-standard residues stand in square brackets, D forms with d. Residues, ends and D or L forms follow the SMILES beside them. ξ: configuration not given here. *: point of attachment. Cbz = O=C(OCc1ccccc1)*; ξK = NCCCCC(N)C(=O)O
So I've got a bunch of compounds here, and I need their GI50 values.

Solved entries:
CCOC(=O)C(=O)NCCCN1CCOCC1 ... > 100 µM (inactive)
NS(=O)(=O)c1ccc(CNc2nc(-c3cccs3)nc3ccc(I)cc23)cc1 ... 21.9 µM (inactive)
COC(=O)[C@H](Cc1ccccc1)NC(=O)N(CCN(CCC#N)C(=O)N[C@H](C(=O)OC)C(C)C)c1ccccc1 ... 24.3 µM (inactive)

# batch: return GI50 for each of the 7 compounds below
1. Cc1c(NC(=O)c2cc([N+](=O)[O-])cc([N+](=O)[O-])c2)c(=O)n(-c2ccccc2)n1C
2. O=C(CCc1ccc(O)cc1)NCCc1cccc(OCc2ccccc2)c1
3. CC(=O)O[C@H]1CC[C@@]2(C)C(=CC[C@@H]3[C@@H]2CC[C@]2(C)Nc4c(cnn4S(C)(=O)=O)C[C@@H]32)C1
4. Cc1ccc(C(=O)/C=C(\O)C(=O)NC23CC4CC(CC(C4)C2)C3)cc1
5. Fc1cc(F)c(F)c(S)c1F
6. NCCCCC(NC(=O)OCc1ccccc1)C(=O)NCC(N)=O (stereo not given) (Cbz-[ξK]-Gly-NH2)
7. C=CCNC(NCC=C)=C(C(Cl)=C(Cl)Cl)[N+](=O)[O-]

Result block:
1. > 100 µM (inactive)
2. 14 µM (inactive)
3. 20.1 µM (inactive)
4. 3.86 µM (inactive)
5. 23.8 µM (inactive)
6. > 100 µM (inactive)
7. 31.5 µM (inactive)

###

tested on: COLO 205; assay: NCI tumour cell line growth inhibition, 48 h
Calls of active or inactive are those of the source. Rule as the data show it: active = GI50 up to about 1.1 µM and inactive = higher.
Parameter call: string, one of Yes = active, No = inactive

Reference set (5 entries):
CCC(=S)N(C)O ... Yes
Nc1cc2c3c(cccc3c1)NC2=O ... No
C/C(CCn1[nH]c(=O)ccc1=O)=N\NC(=O)C(=O)NN ... No
N#CC(C#N)=C1/C(=C/C=C/C=C/C=C/c2ccc(N3CCCCC3)s2)S(=O)(=O)c2ccccc21 ... No
O=[N+]([O-])c1ccc(-c2nc3cc(Cl)ccc3[nH]2)cc1 ... No

Query block: Returns: the outcome recorded for `COC(=O)[C@H](Cc1ccccc1)NC(=O)N(CCN(CCC#N)C(=O)N[C@H](C(=O)OC)C(C)C)c1ccccc1` in this assay.
Result block: No

Query block: Returns: the outcome recorded for CCCCC(/C=C\COC1CCCCO1)=C/C(=O)OCC (stereo not given) in this assay.
Result block: No

Query block: Returns: the outcome recorded for `COc1cc(O)c(C(=O)/C=C/c2ccccc2)c(OC)c1` in this assay.
Result block: No

Query block: Returns: the outcome recorded for `Cc1cc(C)nc(NS(=O)(=O)c2ccc(NC(=O)NC(F)(F)F)cc2)n1` in this assay.
Result block: No

Query block: Returns: the outcome recorded for `O=C(/C=C/c1ccc([N+](=O)[O-])cc1)c1ccc(NCc2nc3ccccc3[nH]2)cc1` in this assay.
Result block: No
